What protein stability index was measured for each of the following?
B1: APBB1IP (parent)
chain: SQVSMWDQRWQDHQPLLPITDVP

Variants of: B1
assayRemarks: protein stability index of a GFP-peptide fusion (GPS, HEK-293T) (PSI 1-6); higher = more stable;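 note: lentivirally expressed fusions sorted by FACS into six bins by GFP to DsRed ratio, PSI derived from sequencing read proportions per bin multiplied by bin number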
measurementContext: c terminus: native
Give bare numbers.

Answered examples (6):
1. R9I
2.34
2. P15M
1.82
3. Q8H
2.16
4. P18M
1.71
5. Q11M
2.06
6. Q11S
2.37

Batch: protein stability index for all items listed.
1. W6P
2. D12S
3. W6C

1: 3.18; 2: 2.1; 3: 3.04

Batch: protein stability index for all items listed.
1. P18Q
2. Q14A
3. P18L
4. R9E

1. 1.71
2. 2.48
3. 1.41
4. 3.54

Batch: protein stability index for all items listed.
1. I19R
2. L17Q
3. V3W
4. M5N
5. H13S
6. D12W
7. W10H
8. D7E

[3.17, 2.59, 1.64, 2.76, 2.94, 1.24, 3.14, 2.85]

Batch: protein stability index for all items listed.
1. Q8K
2. L16C
3. Q8E
4. H13Q
5. M5A
6. Q2R
7. H13C
8. H13I

[2.68, 2.83, 2.6, 2.43, 3.14, 1.66, 2.24, 2.3]
